These measurements were taken from ChEMBL document CHEMBL3046373.

Assayed Target: Cytochrome P450 14alpha-demethylase (Penicillium digitatum, UniProt A1XG20)
Sequence (A1XG20 whole entry): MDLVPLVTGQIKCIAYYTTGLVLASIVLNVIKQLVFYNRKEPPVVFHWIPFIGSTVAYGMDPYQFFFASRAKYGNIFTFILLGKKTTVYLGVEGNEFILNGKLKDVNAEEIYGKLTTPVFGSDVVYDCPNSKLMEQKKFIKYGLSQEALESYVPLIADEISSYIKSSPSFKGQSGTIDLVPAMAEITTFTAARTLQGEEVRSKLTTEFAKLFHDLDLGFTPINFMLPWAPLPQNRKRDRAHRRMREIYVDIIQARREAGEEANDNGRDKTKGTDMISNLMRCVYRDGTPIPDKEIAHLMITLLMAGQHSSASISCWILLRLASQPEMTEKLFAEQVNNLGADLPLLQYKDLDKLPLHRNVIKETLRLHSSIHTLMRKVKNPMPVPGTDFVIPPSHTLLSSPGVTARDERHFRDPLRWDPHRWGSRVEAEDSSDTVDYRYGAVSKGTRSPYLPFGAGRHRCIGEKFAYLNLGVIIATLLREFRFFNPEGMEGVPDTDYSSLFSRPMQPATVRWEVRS
Assay Procedure: Binding affinity to Penicillium digitatum recombinant N-terminal-His6 tagged CYP51 expressed in Escherichia coli BL21(DE3) by spectrophotometric analysis
Parameter Kd: see the listing below.

[
  {
    "Compound": "CC(C)(C)C(=O)C(Oc1ccc(Cl)cc1)n1cncn1 (stereo unspecified)",
    "Kd": "0.42 µM"
  },
  {
    "Compound": "COc1ccc2c(c1)SCC(N)=N2",
    "Kd": "0.268 µM"
  },
  {
    "Compound": "Nc1nnc(CSCc2ccc(Cl)cc2)s1",
    "Kd": "0.642 µM"
  },
  {
    "Compound": "c1cc2c3c(cccc3c1)NC(c1cnc[nH]1)N2",
    "Kd": "0.99 µM"
  },
  {
    "Compound": "CC(C)(C)C(O)/C(=C\\c1ccc(Cl)cc1Cl)n1cncn1 (stereo unspecified)",
    "Kd": "0.12 µM"
  }
]

Please examine the following record next.
Kd for NNc1ncncc1-c1ccccc1 [5-PHENYLPYRIMIDIN-4-YLHYDRAZINE] ?
0.658 µM
